target: Human CD3eg linker (human); assay: SPR; fold vs parent H183/L072
Sequence (chain, as listed by the source limits assumed): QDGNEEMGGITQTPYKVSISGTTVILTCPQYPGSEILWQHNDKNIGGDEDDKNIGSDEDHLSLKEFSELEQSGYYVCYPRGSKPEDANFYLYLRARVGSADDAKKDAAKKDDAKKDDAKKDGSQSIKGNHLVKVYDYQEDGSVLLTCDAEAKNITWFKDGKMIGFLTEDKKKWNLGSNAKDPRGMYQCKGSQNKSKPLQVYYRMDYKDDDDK
readout: fold change of affinity (fold)
Record the value in fold, omitting the unit from your answer.

| binder | readout-number |
| --- | --- |
| H183/L072 VL T31P (antibody, name in Kabat numbering, V domains shown) VH: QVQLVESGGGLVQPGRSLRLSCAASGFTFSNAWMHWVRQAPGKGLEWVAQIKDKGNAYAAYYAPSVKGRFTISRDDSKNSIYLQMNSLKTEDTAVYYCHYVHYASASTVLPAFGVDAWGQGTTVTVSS VL: DIVMTQSPLSLPVTPGEPASISCQASQELVHMNRNPYLHWYQQKPGQAPRLLIYKVSNRFPGVPDRFSGSGSGTDFTLKISRVEAEDVGVYYCAQGTSVPFTFGQGTKLEIK | 0 |
| H183/L072 VL H27dI (antibody, name in Kabat numbering, V domains shown) VH: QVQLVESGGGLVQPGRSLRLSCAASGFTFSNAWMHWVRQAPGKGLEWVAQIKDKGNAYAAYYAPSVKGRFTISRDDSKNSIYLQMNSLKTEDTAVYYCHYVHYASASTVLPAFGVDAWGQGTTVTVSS VL: DIVMTQSPLSLPVTPGEPASISCQASQELVIMNRNTYLHWYQQKPGQAPRLLIYKVSNRFPGVPDRFSGSGSGTDFTLKISRVEAEDVGVYYCAQGTSVPFTFGQGTKLEIK | 0 |

Prompt: Query: fold change of affinity; subject: H183/L072 VL Y32I (antibody, name in Kabat numbering, V domains shown) VH: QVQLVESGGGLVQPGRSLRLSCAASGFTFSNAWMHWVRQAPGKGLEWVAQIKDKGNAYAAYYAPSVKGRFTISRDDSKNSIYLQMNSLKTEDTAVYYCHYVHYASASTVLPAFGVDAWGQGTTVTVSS VL: DIVMTQSPLSLPVTPGEPASISCQASQELVHMNRNTILHWYQQKPGQAPRLLIYKVSNRFPGVPDRFSGSGSGTDFTLKISRVEAEDVGVYYCAQGTSVPFTFGQGTKLEIK
Response: 0
